Values were extracted from paper PMC12007089.

# Test summary: Stability of ligands in 0.1 M PBS (UV/Vis concentration)
# Type: physicochemical
# Cond: 277 K, storage 3,5 h (EC), 22 h (CAT), 15 h (PC B1, PC B2, PC C1)
Quantity: conc.

Ask | Can you share its conc.? I mean this molecule: Oc1cc(O)c2c(c1)O[C@H](c1ccc(O)c(O)c1)[C@H](O)C2 [EC, (−)-Epicatechin]
Reply | 3,99 ± 0,25 mM

Ask | Can you check Oc1cc(O)c2c(c1)O[C@H](c1ccc(O)c(O)c1)[C@@H](O)C2 [CAT, (+)-Catechin] next?
Reply | 3,94 ± 0,24 mM

Ask | Can you check Oc1cc(O)c2c(c1)O[C@H](c1ccc(O)c(O)c1)[C@H](O)[C@H]2c1c(O)cc(O)c2c1O[C@H](c1ccc(O)c(O)c1)[C@H](O)C2 next?
Reply | 4,46 ± 0,24 mM

Ask | Can you check Oc1cc(O)c2c(c1)O[C@H](c1ccc(O)c(O)c1)[C@H](O)[C@H]2c1c(O)cc(O)c2c1O[C@H](c1ccc(O)c(O)c1)[C@@H](O)C2 next?
Reply | 4,28 ± 0,20 mM

Ask | Can you check Oc1cc(O)c2c(c1)O[C@H](c1ccc(O)c(O)c1)[C@H](O)[C@H]2c1c(O)cc(O)c2c1O[C@H](c1ccc(O)c(O)c1)[C@H](O)[C@H]2c1c(O)cc(O)c2c1O[C@H](c1ccc(O)c(O)c1)[C@H](O)C2 next?
Reply | 4,60 ± 0,42 mM
